Tested on: Saccharomyces cerevisiae;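 further: PSI is a weighted mean of sequencing reads over stability bins, variants kept only with over 10 reads, mCherry proximal and sfGFP distal, peptide attached via GGGS linker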
Assay Details: protein stability index of tFT-peptide fusion (C-terminal peptide) (PSI (0-1 scale)); higher = more stable (slower turnover)
Condition Context: genetic background: cdc34-1; temperature: 37 C
Quick rule for you: protein stability index at 0.6 or higher means condition met, lower means condition not met.

Construct Sequence: GLGMVIIGLLIG
Answer Label: condition not met

Construct Sequence: VGRVIVIVVAGV
Answer Label: condition not met

Construct Sequence: LDTTSRSRAKIS
Answer Label: condition not met

Construct Sequence: VIRSIVSAYMIC
Answer Label: condition not met

Construct Sequence: QITIYPIPLARF
Answer Label: condition met

Ask: Answer whether protein stability index of `LCLLPVCLWDVG` is greater than or equal to 0.6.
Result: condition not met

Ask: Answer whether protein stability index of `AFVALCACVIFV` is greater than or equal to 0.6.
Result: condition not met

Ask: Answer whether protein stability index of `VCFFSSSCFLLV` is greater than or equal to 0.6.
Result: condition not met

Ask: Answer whether protein stability index of `VVCFVVCGFYLG` is greater than or equal to 0.6.
Result: condition not met

Ask: Answer whether protein stability index of `RLIARFKILRCI` is greater than or equal to 0.6.
Result: condition not met

Ask: Answer whether protein stability index of `RLLRGDRMVICS` is greater than or equal to 0.6.
Result: condition not met

Ask: Answer whether protein stability index of `VFVMVLCALFYF` is greater than or equal to 0.6.
Result: condition not met
